- experimentalDetails: yeast display, Sf9 membrane polyspecificity reagent, FACS + sequencing; frameworks hold sequencing errors
quantityMeasured: polyreactivity (PSR sort gate)

Illustrative cases are given below, each with its answer.
[[record]]
sequencecontent = "QVQLVESGGGFVQAGGSLRLSCAASGRTFNGYAMGWYTQAPGKERELVAGISWRGTSTYYSDSVKGRFTISRDNAKNTVYLQLNSLKPEDTAVYYCAASRYLLYDYWGQGTQVTVSS"
quantitymeasured = "polyreactivity (PSR sort gate)"
resultvalue = "high polyreactivity"

[[record]]
sequencecontent = "QVQLVESGGGLFQAGGSLRLSSAASGSTFSYYVMGWYRQAPGKERELVAAIDYSGDSTYYADSVKGRFTLSRDNAKNTVYLQMNSLKPEDTAVYYCAADDYPWNRYEYWGQGTQVTVSS"
quantitymeasured = "polyreactivity (PSR sort gate)"
resultvalue = "low polyreactivity"

[[record]]
sequencecontent = "QVQHVESGGGLVQAGGSLRLICAASGYIFRGYVMGWYRQAPGKERELVAAITSRGDSTYYADSVKGRFTISRDNAKNTVYLPMNSLKPEDTAVYYCAARGGVLKGYYYWGQGTQVTVSS"
quantitymeasured = "polyreactivity (PSR sort gate)"
resultvalue = "high polyreactivity"

[[record]]
sequencecontent = "QVQLVESGGGLVQAGGSLRLSCAASGRTFRGYAMGWYRPAPGKERELVAVISRGGRTNYADSVKGRFTISRDNAKNTVYLQMNSLKPEDTAVSYCAAEVAFIYSLRYDYWGQGTQVTVSS"
quantitymeasured = "polyreactivity (PSR sort gate)"
resultvalue = "high polyreactivity"

[[record]]
sequencecontent = "QVQLVESGGCLVQAGGSLRLSCAASGSTINSYAMGCYRQAPGKERELVAAITWIGGNTYYADSVKGRFTISRDNSKNTVYLQMTSLKPEDTAVYYCGADEYFEYYYWGQGTQVTVSS"
quantitymeasured = "polyreactivity (PSR sort gate)"
resultvalue = "low polyreactivity"

[[record]]
sequencecontent = "QVQLVESGGGLVQAGGSLRLSCAASGSTFRQYAMGWYRQAPGKERELVAAITWRGDNTYYADSVKGRFTISRDNAKNTVYLQMNSLKPEDTAVYYCAARWSYRLYWGYGYWGQGTQVTLSS"
quantitymeasured = "polyreactivity (PSR sort gate)"
resultvalue = "low polyreactivity"


# input Return reported polyreactivity (PSR sort gate); argument: `QVQLVESGGCLVQAGGSLRLSCAASGSTFTYNAMGWYRQAPGKERELVAAISRTANANYADSVKGRFTISRDNAKNTVYLQMNSLKPEDTAVYYCADDFLDSKVHVRFGYWGKGTQVTVSS`
# output low polyreactivity

# input Form field: reported polyreactivity (PSR sort gate) of `QVQLVESGGGLVQAGGSLRLSCAASGLTFEHNAMGWYRQAPGKEREFVAVISWRGTSTYYADSVKGRFTISRDNAKNTVYLQMNSLKPEATAVYYCAAGYRGVANRKWIYYYWGQGTQVTVSS`
# output high polyreactivity

# input Suppose we examine the sequence `QVQLVESGGGLVLAGGSLRLSCAASGIIFYRNAMGWYRQAPGKERELVAAITSSGGRTYYADSVKGRFTISRDNAKNTVYLQMNSLKPEDTAVYYCAATRMYWKIFYGDGDYWGQGTQVTVST` ; what polyreactivity (PSR sort gate) value has been reported?
# output high polyreactivity

# input Find the recorded polyreactivity (PSR sort gate) belonging to `QVQLVESGGGLVQAGGSLRLSCAASGSTLTRNTMGWYRQAPGKERELVATITRSGGSTYYADSVKGRFTISRDNAKNTVYLQMNSLKPEDTAVYYCAKRGRLRNYDYWGQGTQVTVSS` and report it.
# output high polyreactivity

# input Quick one: polyreactivity (PSR sort gate) of `QVQLVESGGGLVQAGGSLRLSCAASGSICVQYAMGRSRQAPGKERELVAAISNSGGSTYYADSVKGRFTISRDTAKNTVYLQMNSLKPEDTAVYYCAARYHTRGAGRPYYYWGQGTQVTVSS` ?
# output high polyreactivity

# input Value lookup for polyreactivity (PSR sort gate); key = `QVQLVESGGGLVQAGGSLRLSCAASGSTLLVYAMGWYRQAPGKERELVAAITYSGTTTYYADSVKGRFTISRDNAKNTVYLQMNSLKPEDTAVYYCAKYPGYFQGNYWGQGTQVTVSS`
# output low polyreactivity

# input Dear colleague, I am looking for the recorded polyreactivity (PSR sort gate) of the following sequence: `QVQLVESGGGLVQAGRSLRLSCAASGSTFPVNTMGWYRQAPGKDRELVAAITKNGANTYYADSVKGRFTISRDNAKNTVYLQMNSLKPEDTAVYYCAARYVYGKSYSRWLVELDYWGQGTQVTVSS`
# output low polyreactivity

# input Returns the measured polyreactivity (PSR sort gate) for the input sequence. Input: `QVQLVESGGGLVQAGGSLRLSCAASGRTFDIYAMGWYRQAPGKERELVAAISSGGSTYYADSVKGRFTISRDNAKNTVYLQINSLKPEDTAVYYCAVRWYDQVSRRGIGYYWGQGSQVTVSS`
# output low polyreactivity

# input Dear colleague, I am looking for the recorded polyreactivity (PSR sort gate) of the following sequence: `QVQLVESGGGLVQAGGSLRLSCAASGIIFQSYTMGWYRQAPGKERELVAAIDSGGSTYYADSVKGRFTISRDNAKNTVYVQMNSLKPEDSAVYYCATDYPLYWSTLYDYDYWGQGTQVTVSS`
# output low polyreactivity
